# ASSAY_REMARKS: Brain and plasma concentrations in mice after intraperitoneal administration (LC-MS-MS), non-compartmental analysis
# Assay type: in vivo
# MEASUREMENT_CONTEXT: male, Swiss-Webster (Crl:CFW(SW)), mouse, brain, ip, 10 mg/kg, 24 h, 10 mg/kg i.p., individual mice; read-out: [drug],brain (free base equivalent)
# Experimental: Doses are reported by weight of the specified salt. […] Body mass was measured to ±0.1 g. Mice were sacrificed by cervical dislocation, then decapitated for collection of brain and blood samples. […] Drug concentrations (ng mL^-1) refer to the free base, and were measured by liquid chromatography-tandem mass spectrometry (LC-MS-MS) as described previously. […] Compounds were detected in positive ion mode, tuned to the mass transition with the largest intensity. […]
PROPERTY_LABEL: concentration at 24 h (ng/g)
Field: numeric (ng/g). Do not append units.

Q: Tell me measured concentration at 24 h for `CC(C)[C@@H](CN1CC[C@@](C)(c2cccc(O)c2)[C@@H](C)C1)NC(=O)[C@H]1Cc2ccc(O)cc2CN1` please.
Result: 30.3
